STUDY_SYSTEM: human plasmin (Homo sapiens, UniProt P00747)
Construct: 50 µl of 0.2 casein units/ml of human plasmin
Sequence (P00747 581-810 limits assumed): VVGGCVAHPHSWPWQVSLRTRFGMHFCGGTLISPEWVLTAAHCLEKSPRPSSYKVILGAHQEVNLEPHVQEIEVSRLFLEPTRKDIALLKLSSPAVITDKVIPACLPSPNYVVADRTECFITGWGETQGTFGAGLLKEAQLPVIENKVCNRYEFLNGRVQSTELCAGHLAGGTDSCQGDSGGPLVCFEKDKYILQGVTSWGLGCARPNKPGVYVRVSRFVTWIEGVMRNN
Sequence (P00747 97-580 partner limits assumed): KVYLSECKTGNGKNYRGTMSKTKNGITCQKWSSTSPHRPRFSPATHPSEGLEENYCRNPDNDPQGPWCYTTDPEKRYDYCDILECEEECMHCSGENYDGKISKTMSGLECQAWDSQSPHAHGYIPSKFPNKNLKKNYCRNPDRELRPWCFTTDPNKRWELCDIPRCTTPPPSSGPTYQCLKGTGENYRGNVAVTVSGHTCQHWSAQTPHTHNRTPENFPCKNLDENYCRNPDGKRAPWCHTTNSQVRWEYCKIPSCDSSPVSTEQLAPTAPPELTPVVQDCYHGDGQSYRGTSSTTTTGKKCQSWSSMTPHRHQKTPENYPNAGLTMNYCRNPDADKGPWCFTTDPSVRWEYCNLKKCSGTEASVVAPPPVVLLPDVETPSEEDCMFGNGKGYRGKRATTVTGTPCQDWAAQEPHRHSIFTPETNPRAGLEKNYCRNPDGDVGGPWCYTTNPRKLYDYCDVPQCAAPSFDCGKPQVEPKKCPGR
PROTOCOL_DESCRIPTION: Anti-plasmin activity: inhibition of S-2251 degradation
Assay type: biochemical

MOLECULE	IC50 [µM]
CCOC(=O)c1ccc(OC(=O)CCCCCNC(=N)N)cc1 [FOY, gabexate mesilate, reference compound]	3.4

---

STUDY_SYSTEM: bovine factor Xa (Bos taurus)
Construct: 0.05 ml of 0.3 vial/ml bovine factor Xa
Sequence (P00743 234-492 limits assumed): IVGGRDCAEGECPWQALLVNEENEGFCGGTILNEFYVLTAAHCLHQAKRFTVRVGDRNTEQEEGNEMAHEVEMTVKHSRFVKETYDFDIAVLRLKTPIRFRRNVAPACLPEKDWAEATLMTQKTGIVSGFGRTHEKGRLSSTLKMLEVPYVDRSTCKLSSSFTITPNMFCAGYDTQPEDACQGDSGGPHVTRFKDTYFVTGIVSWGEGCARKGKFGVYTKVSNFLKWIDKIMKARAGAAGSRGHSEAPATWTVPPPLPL
Sequence (P00743 41-180 partner limits assumed): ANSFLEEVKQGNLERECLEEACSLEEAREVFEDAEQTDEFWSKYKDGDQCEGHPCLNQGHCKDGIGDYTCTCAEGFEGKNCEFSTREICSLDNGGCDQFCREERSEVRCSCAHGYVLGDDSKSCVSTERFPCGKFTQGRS
PROTOCOL_DESCRIPTION: Anti-FXa activity: inhibition of S-2222 degradation
Type: biochemical
CONDITIONS_USED: substrate S-2222, 37°C, pH 8.3; read-out: FXa S-2222 (I50)
pIC50: −log10 of the molar value.

COMPOUND	VALUE_OPERATOR	pIC50
NCC1CCC(C(=O)NC(Cc2ccc(OCc3ccccn3)cc2)C(=O)Nc2ccc(C(=O)O)cc2)CC1 (stereo not shown)	=	3.15
CC(=O)c1ccc(NC(=O)[C@H](Cc2ccc(OCc3cccc(Cl)c3)cc2)NC(=O)[C@H]2CC[C@H](CN)CC2)cc1	=	4.46
NCC1CCC(C(=O)NC(Cc2ccccc2)C(=O)Nc2ccc(CC(=O)O)cc2)CC1 (stereo not shown)	<	3.00
CC(=O)c1ccc(NC(=O)[C@H](Cc2ccc(OCc3ccccn3)cc2)NC(=O)[C@H]2CC[C@H](CN)CC2)cc1	=	3.80

---

STUDY_SYSTEM: human plasmin (Homo sapiens, UniProt P00747)
Construct: 50 µl of 0.2 casein units/ml of human plasmin
PROTOCOL_DESCRIPTION: Anti-plasmin activity: inhibition of fibrinolysis (fibrin clot lysis time)
Assay type: biochemical

MOLECULE	UNIT_ABBREV	IC50
CCOC(=O)c1ccc(OC(=O)CCCCCNC(=N)N)cc1 [FOY, gabexate mesilate, reference compound]	µM	3

---

# pIC50 values compiled below
STUDY_SYSTEM: human plasma kallikrein (Homo sapiens, UniProt P03952)
Construct: 50 µl of 0.12 units/ml human plasma kallikrein solution
Sequence (P03952 391-638 limits assumed): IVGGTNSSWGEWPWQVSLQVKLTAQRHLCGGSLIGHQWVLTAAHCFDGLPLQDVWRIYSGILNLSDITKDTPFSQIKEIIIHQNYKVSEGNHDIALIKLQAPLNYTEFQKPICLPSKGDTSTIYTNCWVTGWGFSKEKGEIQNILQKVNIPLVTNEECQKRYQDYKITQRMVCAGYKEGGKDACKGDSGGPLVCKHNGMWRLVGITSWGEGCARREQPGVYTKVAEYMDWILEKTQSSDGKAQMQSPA
Sequence (P03952 20-390 partner limits assumed): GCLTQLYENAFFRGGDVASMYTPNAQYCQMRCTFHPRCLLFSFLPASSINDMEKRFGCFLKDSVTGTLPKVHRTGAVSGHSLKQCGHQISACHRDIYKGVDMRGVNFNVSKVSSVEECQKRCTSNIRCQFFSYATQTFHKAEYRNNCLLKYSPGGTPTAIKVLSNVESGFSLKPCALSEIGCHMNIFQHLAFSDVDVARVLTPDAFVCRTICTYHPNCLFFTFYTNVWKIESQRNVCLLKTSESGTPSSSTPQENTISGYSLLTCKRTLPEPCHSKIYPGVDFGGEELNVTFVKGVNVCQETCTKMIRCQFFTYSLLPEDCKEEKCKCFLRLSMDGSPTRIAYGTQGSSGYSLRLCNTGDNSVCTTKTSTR
PROTOCOL_DESCRIPTION: Anti-plasma kallikrein activity: inhibition of S-2302 degradation
Assay type: biochemical
CONDITIONS_USED: substrate S-2302, 37°C, pH 7.8; read-out: Plasma kallikrein S-2302 (I50)
pIC50: −log10 of the molar value.

MOLECULE	pIC50
NC[C@H]1CC[C@H](C(=O)N[C@@H](Cc2ccc(OCc3ccccc3)cc2)C(=O)Nc2ccc(CCC(=O)O)cc2)CC1 [Compound 16]	5.74
NC[C@H]1CC[C@H](C(=O)N[C@@H](Cc2ccc(OCc3ccccc3)cc2)C(=O)Nc2cccnc2)CC1 [Compound 1]	5.77
NC[C@H]1CC[C@H](C(=O)N[C@@H](Cc2ccc([N+](=O)[O-])cc2)C(=O)Nc2ccc(C(=O)c3ccccc3)cc2)CC1 [Compound 10]	5.57
CC(=O)c1ccc(NC(=O)[C@H](Cc2ccccc2)NC(=O)[C@H]2CC[C@H](CN)CC2)cc1 [Compound 2]	6.07
CC(=O)c1ccc(NC(=O)[C@H](Cc2ccc(OCc3cccc(Cl)c3)cc2)NC(=O)[C@H]2CC[C@H](CN)CC2)cc1 [Compound 3]	6.42
CC(=O)c1ccc(NC(=O)[C@H](Cc2ccc(OCc3ccccn3)cc2)NC(=O)[C@H]2CC[C@H](CN)CC2)cc1 [Compound 6]	5.70
NCC1CCC(C(=O)NC(Cc2ccccc2)C(=O)Nc2ccc(CC(=O)O)cc2)CC1 (stereo not shown) [Compound 17]	5.74
